The values you see were collected from patent US8871756B2.

- Tested on: RSV Long strain
- Measurement Notes: Viral cytopathic effect (CPE) assay, anti-RSV activity
- Assay type: cell-based, Respiratory Syncytial Virus
- Test Context: human respiratory syncytial virus, 144 h, RSV Long strain (ATCC); cell viability after 6 days, Cell Counting kit-8
Test Readout: EC50 (µM)

[1] O=S1(=O)CCN(c2cc(NCCO)c3cc(Cl)ccc3n2)Cc2ccccc21 [Example 9-31]
[2] Cc1ccc2nc(N3CCSc4ccccc4C3)cc(NCC3(N)COC3)c2c1 [Example 4-3]
[3] O=S1(=O)CCN(c2nc(NCC(O)CO)c3cc(Cl)ccc3n2)Cc2ccccc21 (centres unmarked) [Example 87-2]
[4] Cc1ccc2nc(N3CCS(=O)(=O)c4ccccc4C3)cc(NCCCCN)c2c1 [Example 9-19]
[5] Cc1ccc2nc(N3CCS(=O)(=O)c4ccccc4C3)nc(NC3CCNC3)c2c1 (centres unmarked) [Example 135-2]
Request: Reorder the items by EC50, least to greatest. Please list the labels according to the requested order.
Response: 4, 5, 2, 1, 3
(4: 0.0007 µM, 5: 0.018 µM, 2: 0.026 µM, 1: 2.43 µM, 3: 9.31 µM)

---

- Tested on: RSV Long strain
- Measurement Notes: Viral cytopathic effect (CPE) assay, anti-RSV activity
- Type: cell-based, Respiratory Syncytial Virus
- Test Context: human respiratory syncytial virus, 144 h, RSV Long strain (ATCC); cell viability after 6 days, Cell Counting kit-8
Test Readout: EC50 (µM)

Answered cases to consult:
Cc1ccc2nc(N3CCC(F)(F)c4ccccc4C3)cc(NCCS(=O)(=O)CCN)c2c1    0.733
NCC1(CNc2nc(N3CCS(=O)(=O)c4ccccc4C3)nc3ccc(Cl)cc23)COC1    0.004
Cc1ccc2nc(N3CCS(=O)(=O)c4ccccc4C3)cc(NCC3(C)CN=C(N)O3)c2c1 (centres unmarked)    0.302

[A] Cc1ccc2c(c1)S(=O)(=O)CCN(c1cc(NCC3(N)COC3)c3cc(C)ccc3n1)C2
[B] Cc1cccc2c(NCCCCCCCCN)cc(N3CCS(=O)(=O)c4ccccc4C3)nc12
Request: Which is greater in EC50, the first item A or the second item B ? Reply briefly: the label of your chosen item.
Response: B

---

- Tested on: RSV Long strain
- Measurement Notes: Viral cytopathic effect (CPE) assay, anti-RSV activity
- Format: cell-based, Respiratory Syncytial Virus
- Test Context: human respiratory syncytial virus, 144 h, RSV Long strain (ATCC); cell viability after 6 days, Cell Counting kit-8
Structures can show the parent of a compound that is named as a salt.
Test Readout: EC50 (µM)

Cc1ccc2nc(N3CCCc4cc(F)ccc4C3)cc(NCCN)c2c1    0.463
Cc1ccc2nc(N3CCS(=O)(=O)c4ccccc4C3)cc(NCCCCCCN)c2c1    0.716
Cc1ccc2nc(N3CCS(=O)(=O)c4ccccc4C3)cc(NCC3CCNCC3)c2c1    0.022

[I] NCCCNc1cc(N2CCS(=O)(=O)c3ccccc3C2)nc2ccc(C3CC3)cc12
[II] Cc1ccc2nc(N3CCS(=O)(=O)c4ccccc4C3)cc(NC(=O)CCN)c2c1
[III] Cc1ccc2nc(N3CCS(=O)(=O)c4ccccc4C3)cc(Nc3cccc(N)c3)c2c1
[IV] Cc1ccc2nc(N3CCS(=O)(=O)c4ccccc4C3)cc(NCC3(CO)COC3)c2c1
[V] COc1ccc2c(c1)S(=O)(=O)CCN(c1cc(NCCO)c3ccccc3n1)C2
Request: Order the records, beginning with the lowest EC50 and ending with the highest. Put the labels in the requested order and list them out.
Response: II, I, IV, V, III
(II: 0.037 µM, I: 0.056 µM, IV: 0.248 µM, V: 4.77 µM, III: 7.89 µM)

[P] Cc1ccc2nc(N3CCC(F)(F)c4ccccc4C3)cc(NCCN3CCNCC3)c2c1
[Q] Cc1ccc2nc(N3CCSc4ccccc4C3)nc(NCC3(CN)COC3)c2c1
[R] NC1(CNc2nc(N3CC[S+]([O-])c4ccccc4C3)nc3ccccc23)COC1 (stereo not drawn)
Request: Rank descending by EC50. Respond with the label ranking, as requested.
Response: P, R, Q

[I] Cc1ccc2nc(N3Cc4ccccc4S(=O)(=O)C(C)C3)cc(NCC3(N)COC3)c2c1 (stereo not drawn)
[II] Cc1ccc2nc(N3CCS(=O)(=O)c4ccccc4C3)cc(N3CC4CC3C4N)c2c1 (stereo not drawn)
[III] NCCNc1cc(N2CCCc3ccccc3C2)nc2cccc(Cl)c12
[IV] NCCNc1cc(N2CCCc3cccc(F)c3C2)nc2ccc(Cl)cc12
[V] Cc1ccc2nc(N3CCC(F)(F)c4ccccc4C3)cc(N3C[C@@H](N)[C@H](O)C3)c2c1 (relative stereo)
Request: Put the items in sequence by EC50, from largest down. List each label, following the requested order.
Response: III, II, V, IV, I
(III: 6.66 µM, II: 2.75 µM, V: 0.588 µM, IV: 0.173 µM, I: 0.007 µM)

[A] NC1(CNc2cc(N3CCS(=O)(=O)c4ccccc4C3)nc3ccncc23)COC1
[B] Cc1ccc2nc(N3CCS(=O)(=O)c4ccccc4C3)cc(NS(C)(=O)=O)c2c1 [Example 47-7, trifluoroacetate]
[C] Cc1ccc2nc(N3CCS(=O)(=O)c4ccccc4C3)cc(NC[C@@H]3COC(N)=N3)c2c1
[D] NC1(CNc2nc(N3CCS(=O)(=O)c4ccccc4C3)nc3ccc(Cl)cc23)COC1
Request: Descending sort on EC50 required. Provide your answer as the labels ordered per the instruction.
Response: B, C, D, A
(B: 3.41 µM, C: 0.074 µM, D: 0.037 µM, A: 0.005 µM)

---

- Test system: RSV Long strain
- Measurement Notes: Viral cytopathic effect (CPE) assay, anti-RSV activity
- Format: cell-based, Respiratory Syncytial Virus
- Test Context: human respiratory syncytial virus, 144 h, RSV Long strain (ATCC); cell viability after 6 days, Cell Counting kit-8
Test Readout: EC50 (µM)

Cc1ccc2nc(N3CCS(=O)(=O)c4ccccc4C3)cc(N[C@@H](C)CO)c2c1    0.817
Cc1ccc2nc(N3CCC(F)(F)c4ccccc4C3)nc(NCC3(CN)COC3)c2c1    0.004
Cc1ccc2nc(N3CCS(=O)(=O)c4ccccc4C3)cc(S(=O)(=O)NCCN)c2c1    0.202
Cc1ccc2nc(N3CCSc4ccccc4C3)nc(N)c2c1    2.77

[A] Clc1cc(N2CCCc3ccccc3C2)nc2ccccc12
[B] Cc1ccc2nc(N3CCS(=O)(=O)c4ccccc4C3)nc(NCC3(N)CCC3)c2c1
[C] Cc1ccc2nc(N3CCS(=O)(=O)c4ccccc4C3)cc(NC(=O)c3cccnc3)c2c1
[D] CCNCCNc1cc(N2CCS(=O)(=O)c3ccccc3C2)nc2ccc(C)cc12
Request: # desc sort on EC50 across 4 molecules Would you mind listing the labels in the order requested?
Response: A, C, B, D

[A] Cc1ccc2nc(N3CCS(=O)(=O)c4ccccc4C3)cc(N3CCC(N)CC3)c2c1
[B] CS(=O)(=O)c1ccc2c(c1)CCCN(c1cc(NCCN)c3ccccc3n1)C2
Request: Given A and B , report the one with the higher recorded EC50. Respond with the label that goes with your answer.
Response: B

---

- Test system: RSV Long strain
- Measurement Notes: Viral cytopathic effect (CPE) assay, anti-RSV activity
- Type: cell-based, Respiratory Syncytial Virus
- Test Context: human respiratory syncytial virus, 144 h, RSV Long strain (ATCC); cell viability after 6 days, Cell Counting kit-8
Test Readout: EC50 (µM)

Recorded results for 3 compounds are shown here.
Cc1ccc2nc(N3CC[S+]([O-])c4ccccc4C3)nc(NCCCN)c2c1 (centres unmarked) [Example 56-6]    0.002
O=S1(=O)CCN(c2cc(NCC3(NCc4ccccc4)COC3)c3cc(Cl)ccc3n2)Cc2cc(F)ccc21 [Example 3-2]    3.05
NC1(CNc2cc(N3CCS(=O)(=O)c4ccccc4C3)nc3ccc(CO)cc23)COC1 [Example 3-23]    0.002

[a] Cc1ccc2nc(N3CCS(=O)(=O)c4ccccc4C3)cc(NC(=O)c3cccnn3)c2c1 [Example 3-58]
[b] CCNC(=O)Nc1cc(N2CCC(F)(F)c3ccccc3C2)nc2ccc(C)cc12 [Example 110-14]
Request: When the recorded EC50 values are compared, which is smaller: that of a or that of b ? # reply format: chosen label
Response: a

[A] Cc1ccc2nc(N3CCS(=O)(=O)c4ccccc4C3)cc(NCCO)c2c1F [Example 9-22]
[B] C#Cc1ccc2nc(N3CCS(=O)(=O)c4ccccc4C3)cc(NCCCN)c2c1 [Example 54]
[C] Cc1ccc2nc(N3CCS(=O)(=O)c4ccccc4C3)cc(NC3=NCCN3)c2c1 [Example 7]
[D] Cc1ccc2nc(N3CCS(=O)(=O)c4ccccc4C3)cc(N3CCC(CN)CC3)c2c1 [Example 9-1]
[E] Cc1ccc2nc(N3CCS(=O)(=O)c4ccccc4C3)cc(NCC(N)=O)c2c1 [Example 36-5]
Request: List items by EC50 in falling order. Form entry: labels listed in requested order.
Response: B, D, C, A, E
(B: 4.8 µM, D: 2.35 µM, C: 1.42 µM, A: 0.872 µM, E: 0.026 µM)
